test system: SN12C renal; assay: NCI tumour cell line growth inhibition, 48 h
measured-endpoint: TGI

molecule	meas-value
COP(=O)(OC)C12CCOCCN1c1ccccc1C2=O (stereo unspecified)	> 100 µM
CN1COCc2cc3cc4c(cc3nc21)OCCO4	> 100 µM
O=C1C(Cl)=C(Nc2ccccc2O)C(=O)N1Cc1ccccc1	29.9 µM

Now turn to the next molecule.
Data request: Any idea what TGI was measured for `CN1CCN(c2ccc(Nc3ncc4cc(C#N)c(=O)n(C5CCCC5)c4n3)cc2)CC1` ?
Data returned: 15.5 µM

---

test system: SNB-78 CNS; experiment: NCI tumour cell line growth inhibition, 48 h
Listing of recorded TGI by entry.

molecule	TGI
O=C(O)CSc1n[nH]c(Cc2ccccc2)n1	> 100 µM
C/C(CCn1[nH]c(=O)ccc1=O)=N\OCCCc1ccccc1	> 100 µM
Cc1cccc(C)c1NC(=O)C(=O)CC(=O)c1cccc([N+](=O)[O-])c1	> 100 µM

Data request: Any idea what TGI was measured for CC(C)(C)OC(=O)N1N=NC2C1C1CC(OCc3ccccc3)(OCc3ccccc3)C2O1 (stereo not drawn) ?
Data returned: > 100 µM

Data request: Any idea what TGI was measured for CC(=O)OC1C2CCC1C1C2C2(Cl)C(Cl)=C(Cl)C1(Cl)C2(Cl)Cl (stereo not drawn) ?
Data returned: 34.8 µM

Data request: Any idea what TGI was measured for `CN(C)CCSc1nccc(-c2cc3ccccc3s2)n1` ?
Data returned: 47.8 µM

Data request: Any idea what TGI was measured for O=C(OCc1ccccc1)C(Cc1ccccc1)N(Cc1ccccc1)Cc1ccccc1 (stereo not drawn) ?
Data returned: > 100 µM

Data request: Any idea what TGI was measured for `Oc1ccc(Br)cc1C=Nc1ccc(N=Cc2cc(Br)ccc2O)cc1` ?
Data returned: > 100 µM

Data request: Any idea what TGI was measured for `CCN(CC)CCNC(=O)c1ccc(C)c(OCc2ccccc2)c1[N+](=O)[O-]` ?
Data returned: > 100 µM

Data request: Any idea what TGI was measured for O=[N+]([O-])c1ccc(C2=Nc3ccccc3SC(c3ccccc3)C2)cc1 (stereo not drawn) ?
Data returned: 70.9 µM

Data request: Any idea what TGI was measured for `CC1=C(C(=O)NNS(=O)(=O)c2ccc(C)cc2)CC(C(=O)NNS(=O)(=O)c2ccc(C)cc2)=C(C)N1` ?
Data returned: > 100 µM

Data request: Any idea what TGI was measured for `COC1=C(Br)C(=O)c2nc(C)ccc2C1=O` ?
Data returned: 41.6 µM

Data request: Any idea what TGI was measured for CC(C(=O)n1c2ccccc2c2ccccc21)N(c1ccccc1)c1ccccc1 (stereo not drawn) ?
Data returned: 32 µM

---

test system: TK-10 renal; test: NCI tumour cell line growth inhibition, 48 h; in the data active = GI50 below about 0.43 µM; inactive = the rest
Choose the fitting class; nothing outside y for active, n for inactive is accepted.

Worked examples follow.
compound	target-desc	classification
C=C1CC[C@@H](C(C)C)C[C@@H]2[C@H]([C@H](O)C[C@]2(C)O)[C@@]2(C)CC[C@@H]1O2	TK-10 renal	n
O=C(N/N=C/c1ccc([N+](=O)[O-])o1)c1ccc(O)cc1	TK-10 renal	n
CC/C=C/C/C=C/C/C=C/C/C=C/C/C=C/C/C=C/CCC(=O)Nc1ccn([C@@H]2O[C@H](CO)[C@@H](O)C2(F)F)c(=O)n1	TK-10 renal	n

Data request: Tell me the assay call for CCCCCCCCCCCCOC1C(C(CC(=O)NCCN2CCCC2)NS(=O)(=O)c2cc(Cl)cc(Cl)c2)OC2OC(C)(C)OC21 (stereo unspecified) please.
Data returned: n

Data request: Tell me the assay call for CCOc1ccccc1NC(=O)C(C#N)C1=C(Cl)C(=O)c2ccccc2C1=O (stereo unspecified) please.
Data returned: n
